- measurement_description: self-splicing fitness, log relative to wild type (ln ratio); higher = more splicing; Tetrahymena group I intron in knt gene, E. coli kanamycin selection, DiMSum; sequences stand for … in CUCUCU…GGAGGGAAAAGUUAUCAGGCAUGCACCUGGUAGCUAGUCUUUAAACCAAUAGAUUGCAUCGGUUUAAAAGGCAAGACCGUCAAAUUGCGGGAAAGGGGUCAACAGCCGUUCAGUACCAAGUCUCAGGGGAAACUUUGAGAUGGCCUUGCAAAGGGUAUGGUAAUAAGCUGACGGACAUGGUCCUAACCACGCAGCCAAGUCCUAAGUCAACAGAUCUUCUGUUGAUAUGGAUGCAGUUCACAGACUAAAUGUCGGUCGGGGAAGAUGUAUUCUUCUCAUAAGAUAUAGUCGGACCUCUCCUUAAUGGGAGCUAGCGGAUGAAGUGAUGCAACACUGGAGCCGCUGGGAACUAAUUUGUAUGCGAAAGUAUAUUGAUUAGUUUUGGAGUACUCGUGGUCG;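 note: selection with 25 µg/mL kanamycin versus none on LB agar overnight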
- setup_conditions: 30 °C
sequences and their reported self-splicing fitness (ln)
parameter: self-splicing fitness (ln)

>>> numeric_readout("CCCUAGCAAUAUUACGUUAA")
-3.42
>>> numeric_readout("UGCCAGCAAUAUUACGUUUU")
-3.79
>>> numeric_readout("GUAGAGCAAUAUUACGUUCU")
-2.74
>>> numeric_readout("GCUAAGCAAUAUUACGGCUA")
-0.811
>>> numeric_readout("UCGGAGCAAUAUUACGGGUG")
-3.03
>>> numeric_readout("CUUCAGCAAUAUUACGCUUA")
-3.34
>>> numeric_readout("AAAUAGCAAUAUUACGUAAC")
-2.1
>>> numeric_readout("GUGAAGCAAUAUUACGGUUC")
-2.13

====

sequences and their reported self-splicing fitness (ln)
- measurement_description: self-splicing fitness, log relative to wild type (ln ratio); higher = more splicing; Tetrahymena group I intron in knt gene, E. coli kanamycin selection, DiMSum; sequences stand for … in CUCUCU…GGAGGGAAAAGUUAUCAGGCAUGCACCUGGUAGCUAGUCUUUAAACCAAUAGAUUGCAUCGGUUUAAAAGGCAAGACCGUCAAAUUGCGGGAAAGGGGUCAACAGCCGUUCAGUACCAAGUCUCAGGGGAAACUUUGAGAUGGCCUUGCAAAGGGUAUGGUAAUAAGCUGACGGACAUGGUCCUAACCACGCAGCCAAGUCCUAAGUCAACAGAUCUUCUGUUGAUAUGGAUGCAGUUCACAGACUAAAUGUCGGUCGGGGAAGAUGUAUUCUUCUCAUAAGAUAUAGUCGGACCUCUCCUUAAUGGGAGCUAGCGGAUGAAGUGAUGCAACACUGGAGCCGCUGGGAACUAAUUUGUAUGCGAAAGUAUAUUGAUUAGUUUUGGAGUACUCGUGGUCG
- setup_conditions: 37 °C
parameter: self-splicing fitness (ln)

>>> numeric_readout("AGCAAGCAAUAUUACGUCCU")
0.541
>>> numeric_readout("UGGAAGCAAUAUUACGCCGA")
-0.201
>>> numeric_readout("ACGCAGCAAUAUUACGACUG")
-2.02
>>> numeric_readout("GGGCAGCAAUAUUACGCUGA")
-0.998
>>> numeric_readout("CGCCAGCAAUAUUACGGAUG")
-1.25
>>> numeric_readout("UCGUAGCAAUAUUACGUUAA")
-1.16
>>> numeric_readout("UUUAAGCAAUAUUACGUAGG")
-0.287
>>> numeric_readout("AGAAAGCAAUAUUACGUUAA")
-1.44
>>> numeric_readout("GCUUAGCAAUAUUACGAUUU")
-0.234
>>> numeric_readout("AACUAGCAAUAUUACGCUCU")
0.627
>>> numeric_readout("AAUCAGCAAUAUUACGCCGA")
-0.332
>>> numeric_readout("UGCGAGCAAUAUUACGUGCA")
-1.35
>>> numeric_readout("ACAUAGCAAUAUUACGGCAU")
-0.486
>>> numeric_readout("CUCCAGCAAUAUUACGAGUA")
-2.14
>>> numeric_readout("AAGCAGCAAUAUUACGCUCU")
-0.549
>>> numeric_readout("GAAAAGCAAUAUUACGCAGC")
-1.74
>>> numeric_readout("CCGUAGCAAUAUUACGGAAG")
-2.34
>>> numeric_readout("GCUUAGCAAUAUUACGGGAC")
-1.19
>>> numeric_readout("GCGCAGCAAUAUUACGAUUA")
-1.48
>>> numeric_readout("GUAGAGCAAUAUUACGUUCU")
-0.917
>>> numeric_readout("GCCGAGCAAUAUUACGUUUA")
0.181
>>> numeric_readout("GCGGAGCAAUAUUACGUGGG")
-2.25
>>> numeric_readout("AUACAGCAAUAUUACGGUCC")
0.135
>>> numeric_readout("GUAUAGCAAUAUUACGAUGA")
-0.697
>>> numeric_readout("UGCGAGCAAUAUUACGGCAG")
-1.59
>>> numeric_readout("GGCGAGCAAUAUUACGCUAC")
1.89
>>> numeric_readout("AGCCAGCAAUAUUACGCAUG")
-2.2
>>> numeric_readout("CAGGAGCAAUAUUACGUGAU")
-1.95
>>> numeric_readout("UAUCAGCAAUAUUACGACCA")
0.439
>>> numeric_readout("CGCCAGCAAUAUUACGAUGA")
-1.48
>>> numeric_readout("CGUGAGCAAUAUUACGACCA")
-0.768
>>> numeric_readout("AGGUAGCAAUAUUACGGUGC")
-1.98
>>> numeric_readout("AAUCAGCAAUAUUACGGCGU")
0.7
>>> numeric_readout("CGAAAGCAAUAUUACGAAUG")
0.263
>>> numeric_readout("ACGCAGCAAUAUUACGUGAU")
-0.783
>>> numeric_readout("GCAUAGCAAUAUUACGGCGG")
-2.26
>>> numeric_readout("UAAUAGCAAUAUUACGCGUA")
-0.713
>>> numeric_readout("CCGAAGCAAUAUUACGGCUG")
-0.38
>>> numeric_readout("GCGGAGCAAUAUUACGGAUU")
-1.28
>>> numeric_readout("GAACAGCAAUAUUACGACUG")
0.155
>>> numeric_readout("AAGUAGCAAUAUUACGAGUC")
-2.47
>>> numeric_readout("AAUUAGCAAUAUUACGUAGU")
-0.462
>>> numeric_readout("ACUAAGCAAUAUUACGUCCC")
-1.07
>>> numeric_readout("CUGGAGCAAUAUUACGCCAU")
-2.32
>>> numeric_readout("UUCUAGCAAUAUUACGAGAG")
-2.4
>>> numeric_readout("CCAGAGCAAUAUUACGACUU")
-2.61
>>> numeric_readout("UUAGAGCAAUAUUACGCUUA")
-0.447
>>> numeric_readout("ACGGAGCAAUAUUACGCAAU")
-3.02
>>> numeric_readout("GCAAAGCAAUAUUACGAUUA")
-1.13
>>> numeric_readout("GCCAAGCAAUAUUACGAGUU")
-0.45
>>> numeric_readout("ACGGAGCAAUAUUACGAAGG")
-2.7
>>> numeric_readout("GCUUAGCAAUAUUACGACGA")
-0.516
>>> numeric_readout("CGAUAGCAAUAUUACGCCUA")
-1.38
>>> numeric_readout("GCCUAGCAAUAUUACGCUAG")
-2.47
>>> numeric_readout("UAUCAGCAAUAUUACGCUAC")
-3.24
>>> numeric_readout("ACGUAGCAAUAUUACGAAUU")
-0.778
>>> numeric_readout("AAUUAGCAAUAUUACGGUCU")
0.202
>>> numeric_readout("CUCAAGCAAUAUUACGGAGA")
-1.98
>>> numeric_readout("UGUCAGCAAUAUUACGACCG")
0.122
>>> numeric_readout("GAAAAGCAAUAUUACGGAAG")
-1.32
>>> numeric_readout("GCAGAGCAAUAUUACGUAUC")
-2.08
>>> numeric_readout("GCGUAGCAAUAUUACGAACU")
-0.322
>>> numeric_readout("GCACAGCAAUAUUACGCCAA")
-2.56
>>> numeric_readout("CCCUAGCAAUAUUACGCGUC")
-3.21
>>> numeric_readout("CGUAAGCAAUAUUACGUUGG")
-0.912
>>> numeric_readout("GGUAAGCAAUAUUACGGGUU")
-1.69
>>> numeric_readout("GGGAAGCAAUAUUACGUUCA")
-0.473

Source of measurements: the supplement of paper PMC7877785
